Values from ChEMBL document CHEMBL3885861

Species: Rattus norvegicus
ASSAY_NAME: Open TG-GATES - Regimen: Single
Format: toxicity, organism-based, Sprague-Dawley
Set-up: regimen Single, gender Male, age 6 weeks
TEST_SETTINGS: in vivo, po, 0 mg/kg, 24 h, tissue Blood, route gavage, dose level Control
Kindly return rule met if reported WBC is no lower than 100 x10_2/uL; return rule not met if it is lower.

CN(CCOc1ccc(CC2SC(=O)NC2=O)cc1)c1ccccn1.O=C(O)/C=C\C(=O)O (stereo not given) [ROSIGLITAZONE MALEATE]: rule not met
O=C(O)c1ccccc1Nc1ccccc1: rule met
COc1ccc([C@@H]2Sc3ccccc3N(CCN(C)C)C(=O)[C@@H]2OC(C)=O)cc1: rule not met
O=c1ccc2ccccc2o1: rule met
CC(S)C(=O)NCC(=O)O (stereo not given): rule met
CN(C)CCCN1c2ccccc2Sc2ccc(Cl)cc21: rule met
CCN(CC)C(=S)SSC(=S)N(CC)CC: rule not met
CC(=O)[C@@]1(O)CC[C@H]2[C@@H]3C=C(Cl)C4=CC(=O)CC[C@]4(C)[C@H]3CC[C@@]21C: rule met
